Experiment: microbe, parasite or virus in culture
Details: Mycobacterium tuberculosis, 72 h, read-out: pIC50 (converted)
# IC50 annotations
observedProperty: IC50 (µM)

molecule	comparator	obsValue
CCC1Oc2c(Cl)cccc2NC1=O (configuration not stated)	>	501
COC(=O)c1ccc(CSc2n[nH]c(C)n2)o1	=	239
COc1ccnc(NC(=O)NCc2cccs2)c1	=	90.3
CC1CCCN(CC(=O)Nc2ccccc2C(N)=O)C1 (configuration not stated)	=	248
COc1ccc(C(=O)Nc2nonc2NC(C)=O)cc1	>	501
OCCNCCNCc1ccc(-c2ccccc2F)o1	=	211
O=C(NCc1cccc(Cl)c1)c1cnns1	=	297
COCCNc1nc(-c2ccc(S(N)(=O)=O)cc2)cs1	=	207
CCCOc1ccc(Cl)cc1CNc1ncnc2oc(C)nc12	>	50.1
CN(C)S(=O)(=O)NC1CCCOc2c(Cl)cccc21 (configuration not stated)	>	501
CCNC(=O)NCCOC(=O)c1cccc2cc[nH]c12	>	501
O=S(=O)(NCCNc1ccc(-n2cccc2)nn1)c1ccccc1	=	15.5
O=C(NCCCN1CCCCC1)c1ccc(-n2ccc3ccccc32)s1	=	28.1
CC(NC(=O)CCNC(=O)c1ccco1)c1cccs1 (configuration not stated)	>	501
CCC(CO)NCc1ccc(-c2ccc(Br)cc2)o1 (configuration not stated)	=	44.3
Cc1[nH]ncc1C(=O)NCCCSCC(C)C	=	102
NC(=O)CCSCc1ccn(-c2ccccc2)n1	>	501
CC1CCN(C(=O)CSc2nncs2)CC1	=	22.7
CC(C)N1CC(C(=O)NCc2ccc(S(=O)(=O)N(C)C)cc2)CC1=O (configuration not stated)	>	50.1
CC(=O)N1CCCC(c2cnc(-c3c(C)nn(C)c3C)cn2)C1 (configuration not stated)	>	50.1
COc1cccc(-c2ncc(CN)s2)c1	=	161
CC(C)n1cc(Br)cc1C(=O)NC1=NCCS1	=	177
Cc1nnsc1CN1C[C@H]2CC[C@@H]1CN(Cc1ccccc1)C2	=	13.8
Cc1ccsc1[C@@H]1CCN(C(=O)CCOc2ccccc2)C[C@H]1O	>	50.1
Cn1cc(Br)cc1C(=O)NCC1CCCO1 (configuration not stated)	=	225
CCOC(=O)N1CCN(C(=O)Cc2cccs2)CC1	=	371
COc1cc(OC)cc(C2(F)CCNCC2)c1	=	226
